System: MALME-3M
assay explanation: cells
condition description: Homo sapiens, 48 h, read-out: LC50
parameter measured: CC50 (µM)

> print(dat)
                                   compound  measurement.units  readout.qualifier   val
1  CN(C)c1nc(NCCNS(=O)(=O)c2ccc(C(=O)/C=C/c3ccc(F)cc3)cc2)nc(Nc2ccc(F)cc2)n1 [24f]                 µM                  =  12.4
2  CN(C)c1nc(NCCNS(=O)(=O)c2ccc(C(=O)/C=C/c3ccc(Cl)cc3)cc2)nc(N2CCOCC2)n1 [23e]                 µM                  =  54.2
3  CN(C)c1nc(NCCNS(=O)(=O)c2ccc(C3=Nc4c(N)nc(N)nc4NC(c4ccc(C(F)(F)F)cc4)C3)cc2)nc(Nc2ccc(F)cc2)n1 (stereo not shown) [31g]                 µM                  =  24.2
4  COc1ccc(/C=C/C(=O)c2ccc(S(=O)(=O)NCCNc3nc(Nc4ccc(F)cc4)nc(N(C)C)n3)cc2)cc1 [24c]                 µM                  >   100

* * *

Here we list compounds with their recorded MIC when tested on Cryptococcus neoformans (ATCC 32264).

compound	MIC
C[C@@H]1[C@H](O)[C@@H](C)/C=C/C=C/C=C/C=C/C=C/C=C/C=C/[C@H](O[C@@H]2O[C@H](C)[C@@H](O)[C@H](N)[C@@H]2O)C[C@@H]2O[C@](O)(C[C@@H](O)C[C@@H](O)[C@H](O)CC[C@@H](O)C[C@@H](O)CC(=O)O[C@H]1C)C[C@H](O)[C@H]2C(=O)O [Amphotericin B, reference compound]	0.25 µg/mL
CN(C)c1nc(NCCNS(=O)(=O)c2ccc(C(=O)/C=C/c3ccc(Cl)cc3)cc2)nc(N2CCOCC2)n1 [23e]	250 µg/mL
CN(C)c1nc(NCCNS(=O)(=O)c2ccc(C3=Nc4c(N)nc(N)nc4NC(c4ccc(C(F)(F)F)cc4)C3)cc2)nc(N2CCOCC2)n1 (centres unmarked) [30g]	125 µg/mL
CN(C)c1nc(NCCNS(=O)(=O)c2ccc(C(=O)/C=C/c3ccc(Cl)cc3)cc2)nc(Nc2ccc(F)cc2)n1 [24e]	> 250 µg/mL
COc1cc(/C=C/C(=O)c2cc(OC)c(OC)c(OC)c2)ccc1Oc1nc(Nc2ccc(F)cc2)nc(N(C)C)n1 [21d]	> 250 µg/mL
OC(Cn1cncn1)(Cn1cncn1)c1ccc(F)cc1F [Fluconazole, reference compound]	0.25 µg/mL
COc1cc(C2CC(c3ccc(C(F)(F)F)cc3)=Nc3c(N)nc(N)nc3N2)ccc1Oc1nc(Nc2ccc(F)cc2)nc(N(C)C)n1 (centres unmarked) [29g]	> 250 µg/mL
COc1cc(C2CC(c3ccc(Cl)cc3)=Nc3c(N)nc(N)nc3N2)ccc1Oc1nc(Nc2ccc(F)cc2)nc(N(C)C)n1 (centres unmarked) [29e]	> 250 µg/mL
CC(=O)c1ccc(S(=O)(=O)NCCNc2nc(N(C)C)nc(N3CCOCC3)n2)cc1	> 250 µg/mL
CN(C)c1nc(NCCNS(=O)(=O)c2ccc(C3=Nc4c(N)nc(N)nc4NC(c4ccc(C(F)(F)F)cc4)C3)cc2)nc(Nc2ccc(F)cc2)n1 (centres unmarked) [31g]	> 250 µg/mL
COc1ccc(/C=C/C(=O)c2ccc(S(=O)(=O)NCCNc3nc(Nc4ccc(F)cc4)nc(N(C)C)n3)cc2)cc1 [24c]	> 250 µg/mL
COc1cc(C2CC(c3ccc(S(=O)(=O)NCCNc4nc(N(C)C)nc(N5CCOCC5)n4)cc3)=Nc3c(N)nc(N)nc3N2)cc(OC)c1OC (centres unmarked) [30d]	> 250 µg/mL
COc1ccc(C2=Nc3c(N)nc(N)nc3NC(c3ccc(Oc4nc(Nc5ccc(F)cc5)nc(N(C)C)n4)c(OC)c3)C2)cc1 (centres unmarked) [29c]	> 250 µg/mL
COc1cc(C2CC(c3ccc(F)cc3)=Nc3c(N)nc(N)nc3N2)ccc1Oc1nc(Nc2ccc(F)cc2)nc(N(C)C)n1 (centres unmarked) [29f]	> 250 µg/mL
